Data credit: patent US20100196385A1

Each entry below carries its reported FL1 x count.
Molecular target: full length cynomolgus monkey DLL4 (cynomolgus monkey)
Experiment: FMAT, hybridoma supernatant, 293T cells with cynomolgus DLL4
The answer should be a number; do not append a unit.

QUERY: Sample 12A1 (antibody, IgG4, V domains shown) VH: QVQLVQSGAEVKRPGASVKVSCKASGYTFTSYGITWVRQAPGQGLEYMGWISTYNGNTDYAQKFQGRVTMTADISTSTAYMELRSLRSDDTAVYYCARERGSYFDYWGQGTLVTVSS VL: SYELTQPPSVSVSPGQTARITCSGDTLPKKYAYWYQQKSGQAPVLVIYEDIKRPSGIPERFSGSSSGTMATLTISGAQVEDEADYYCFSTDSGGNHKFGGGTKLTVL — what was its FL1 x count?
RESULT: 1.37e+06

QUERY: Sample 17F3 (antibody, IgG2, V domains shown) VH: QVQLVQSGAEVKKPGASVKVSCKASGYTFTNYGISWVRQAPGQGLEWMGWINAYNGNTNYAQNLQGRVTMTTDTSTNTAYMELRSLRSDDTAVYYCARVAPAAFFDYWDQGTLVTVSS VL: SYELTQPPSVSVSPGQTASITCSGDKLGDKYVCWYQQKPGQSPVLVIYQDNKRPSGIPERFSGSNSGNTATLIISGTQAMDEADYYCQAWDSSTVFGGGTKLTVL — what was its FL1 x count?
RESULT: 1.29e+06

QUERY: Sample 4B4 (antibody, IgG4, V domains shown) VH: QVLLIQSGAEVKKPGASVQVSCKASGYTFTNYGVIWVRQAPGQGLEYMGWISAYNGNTNYAQKLQDRVTMTSDTSTTTAYMELRSLRSDDTAVYYCARELGSSFDYWGQGTLVTVSS VL: SYELTQPPSVSVSPGQTARITCSGDALPKKYAYWYQQKSGQAPVLVIYEDIKRPSGIPERFSGSSSGTMATLTISGAQVEDEADYYCFSTDNSGDHSVFGGGTKLTVL — what was its FL1 x count?
RESULT: 1.04e+09
